- Tested on: SK-BR-3
- EXPERIMENTAL DETAILS: Cytotoxicity against human SKBR3 cells after 48 hrs by SRB assay
- Format: functional
- MEASUREMENT CONTEXT: SK-BR-3, 48 h, read-out: LC50 (the source's name)
EXPERIMENTAL ENDPOINT: CC50 (nM)
The reply should be a number in nM, with the unit left off.

RECORD SMILES	CC50, nM
C/C=C1\NC(=O)[C@H](Cc2ccccc2)NC(=O)[C@@H](C(C)C)NC(=O)[C@@H]([C@H](C)CC)NC(=O)[C@H](NC(=O)[C@H](NC(=O)[C@H](CCCN)NC(=O)[C@H]2CCCN2C(=O)[C@H](NC(=O)[C@H](Cc2ccccc2)NC(=O)[C@@H](NC(=O)[C@H](NC(=O)CCCC(C)C)C(C)C)[C@@H](C)O)C(C)C)[C@H](C)CC)[C@H](C)OC(=O)[C@H](C(C)C)NC1=O	260

Briefly, CC50 measured for C/C=C1\NC(=O)[C@H](Cc2ccc(-c3ccccc3)cc2)NC(=O)[C@@H](C(C)C)NC(=O)[C@@H]([C@H](C)CC)NC(=O)[C@H](NC(=O)[C@H](NC(=O)[C@H](CCCN)NC(=O)[C@H]2CCCN2C(=O)[C@H](NC(=O)[C@@H](NC(=O)[C@@H](NC(=O)[C@H](NC(=O)CCCC(C)C)C(C)C)[C@@H](C)O)C(C)C)C(C)C)[C@H](C)CC)[C@H](C)OC(=O)[C@H](C(C)C)NC1=O : 968

---

- System: PANC-1
- EXPERIMENTAL DETAILS: Cytotoxicity against human PANC1 cells after 48 hrs by SRB assay
- Assay type: functional
- MEASUREMENT CONTEXT: PANC-1, 48 h, read-out: LC50 (the source's name)
EXPERIMENTAL ENDPOINT: CC50 (nM)
All answers are understood in nM, so give the number only.

Worked examples follow.
RECORD SMILES	SUBJECT OF TEST	MEASURED RESULT
C/C=C1\NC(=O)[C@H](Cc2ccccc2)NC(=O)[C@@H](C(C)C)NC(=O)[C@@H]([C@H](C)CC)NC(=O)[C@H](NC(=O)[C@H](NC(=O)[C@H](CCCNC(=O)C(F)(F)F)NC(=O)[C@H]2CCCN2C(=O)[C@H](NC(=O)[C@@H](NC(=O)[C@@H](NC(=O)[C@H](NC(=O)CC[C@@H](C)CC)C(C)C)[C@@H](C)O)C(C)C)C(C)C)[C@H](C)CC)[C@H](C)OC(=O)[C@H](C(C)C)NC1=O	PANC-1	1660
C/C=C1\NC(=O)[C@H](Cc2ccccc2)NC(=O)[C@@H](C(C)C)NC(=O)[C@@H]([C@H](C)CC)NC(=O)[C@H](NC(=O)[C@H](NC(=O)[C@H](CCCN)NC(=O)[C@@H]2CCCN2C(=O)[C@H](NC(=O)[C@@H](NC(=O)[C@@H](NC(=O)[C@H](NC(=O)CC[C@@H](C)CC)C(C)C)[C@@H](C)O)C(C)C)C(C)C)[C@H](C)CC)[C@H](C)OC(=O)[C@H](C(C)C)NC1=O	PANC-1	2040
C/C=C1\NC(=O)[C@H](Cc2ccccc2)NC(=O)[C@@H](C(C)C)NC(=O)[C@@H]([C@H](C)CC)NC(=O)[C@H](NC(=O)[C@H](NC(=O)[C@H](CCCN)NC(=O)[C@H]2CCCN2C(=O)[C@H](NC(=O)[C@H](CCC(N)=O)NC(=O)[C@@H](NC(=O)[C@H](NC(=O)CCCC(C)C)C(C)C)[C@@H](C)O)C(C)C)[C@H](C)CC)[C@H](C)OC(=O)[C@H](C(C)C)NC1=O	PANC-1	2480

Item: C/C=C1\NC(=O)[C@H](Cc2ccccc2)NC(=O)[C@@H](C(C)C)NC(=O)[C@@H]([C@H](C)CC)NC(=O)[C@H](NC(=O)[C@H](NC(=O)[C@H](CCCN)NC(=O)[C@H]2CCCN2C(=O)[C@H](NC(=O)[C@@H](NC(=O)[C@@H](NC(=O)[C@H](NC(=O)CC[C@@H](C)CC)C(C)C)[C@@H](C)O)C(C)C)C(C)C)[C@H](C)CC)[C@H](C)OC(=O)[C@H](C(C)C)NC1=O | CC50: 2200

// sample C/C=C1\NC(=O)[C@H](Cc2ccccc2)NC(=O)[C@@H](C(C)C)NC(=O)[C@@H]([C@H](C)CC)NC(=O)[C@H](NC(=O)[C@H](NC(=O)[C@H](CCCN)NC(=O)[C@H]2CCCN2C(=O)[C@H](NC(=O)[C@@H](NC(=O)[C@@H](NC(=O)[C@H](NC(=O)CC[C@@H](C)[C@H]2CC[C@H]3[C@@H]4CC[C@@H]5C[C@H](OC(=O)C(F)(F)F)CC[C@]5(C)[C@H]4CC[C@]23C)C(C)C)[C@@H](C)O)C(C)C)C(C)C)[C@H](C)CC)[C@H](C)OC(=O)[C@H](C(C)C)NC1=O , its CC50 was 1440

Value of CC50 reported for the compound C/C=C1\NC(=O)[C@@H]2Cc3ccccc3CN2C(=O)[C@@H](C(C)C)NC(=O)[C@@H]([C@H](C)CC)NC(=O)[C@H](NC(=O)[C@H](NC(=O)[C@H](CCCN)NC(=O)[C@H]2CCCN2C(=O)[C@H](NC(=O)[C@@H](NC(=O)[C@@H](NC(=O)[C@H](NC(=O)CC[C@@H](C)CC)C(C)C)[C@@H](C)O)C(C)C)C(C)C)[C@H](C)CC)[C@H](C)OC(=O)[C@H](C(C)C)NC1=O is 2010

According to the records, this compound C/C=C1\NC(=O)[C@H](Cc2ccccc2)NC(=O)[C@@H](C(C)C)NC(=O)[C@@H]([C@H](C)CC)NC(=O)[C@H](NC(=O)[C@H](NC(=O)[C@H](CCCN)NC(=O)[C@H]2CCCN2C(=O)[C@H](NC(=O)[C@@H]2CCCN2C(=O)[C@@H](NC(=O)[C@H](NC(=O)CCCC(C)C)C(C)C)[C@@H](C)O)C(C)C)[C@H](C)CC)[C@H](C)OC(=O)[C@H](C(C)C)NC1=O displays CC50 of 2540

// field: CC50; key: C/C=C1\NC(=O)[C@H](Cc2ccccc2)NC(=O)[C@H](C(C)C)NC(=O)[C@@H]([C@H](C)CC)NC(=O)[C@H](NC(=O)[C@H](NC(=O)[C@H](CCCN)NC(=O)[C@H]2CCCN2C(=O)[C@H](NC(=O)[C@@H](NC(=O)[C@@H](NC(=O)[C@H](NC(=O)CCCC(C)C)C(C)C)[C@@H](C)O)C(C)C)C(C)C)[C@H](C)CC)[C@H](C)OC(=O)[C@H](C(C)C)NC1=O ; value = 2830

C/C=C1\NC(=O)[C@H](Cc2ccccc2)NC(=O)[C@@H](C(C)C)NC(=O)[C@@H]([C@H](C)CC)NC(=O)[C@H](NC(=O)[C@H](NC(=O)[C@H](CCC(=O)O)NC(=O)[C@H]2CCCN2C(=O)[C@H](NC(=O)[C@@H](NC(=O)[C@@H](NC(=O)[C@H](NC(=O)CCCC(C)C)C(C)C)[C@@H](C)O)C(C)C)C(C)C)[C@H](C)CC)[C@H](C)OC(=O)[C@H](C(C)C)NC1=O yielded CC50 of 2600

For reference, reported CC50 for C/C=C1\NC(=O)[C@H](Cc2cccs2)NC(=O)[C@@H](C(C)C)NC(=O)[C@@H]([C@H](C)CC)NC(=O)[C@H](NC(=O)[C@H](NC(=O)[C@H](CCCN)NC(=O)[C@H]2CCCN2C(=O)[C@H](NC(=O)[C@@H](NC(=O)[C@@H](NC(=O)[C@H](NC(=O)CC[C@@H](C)CC)C(C)C)[C@@H](C)O)C(C)C)C(C)C)[C@H](C)CC)[C@H](C)OC(=O)[C@H](C(C)C)NC1=O stands at 2010
